target-under-test: Amine oxidase [flavin-containing] B (Bos taurus)
Sequence (P56560 whole entry): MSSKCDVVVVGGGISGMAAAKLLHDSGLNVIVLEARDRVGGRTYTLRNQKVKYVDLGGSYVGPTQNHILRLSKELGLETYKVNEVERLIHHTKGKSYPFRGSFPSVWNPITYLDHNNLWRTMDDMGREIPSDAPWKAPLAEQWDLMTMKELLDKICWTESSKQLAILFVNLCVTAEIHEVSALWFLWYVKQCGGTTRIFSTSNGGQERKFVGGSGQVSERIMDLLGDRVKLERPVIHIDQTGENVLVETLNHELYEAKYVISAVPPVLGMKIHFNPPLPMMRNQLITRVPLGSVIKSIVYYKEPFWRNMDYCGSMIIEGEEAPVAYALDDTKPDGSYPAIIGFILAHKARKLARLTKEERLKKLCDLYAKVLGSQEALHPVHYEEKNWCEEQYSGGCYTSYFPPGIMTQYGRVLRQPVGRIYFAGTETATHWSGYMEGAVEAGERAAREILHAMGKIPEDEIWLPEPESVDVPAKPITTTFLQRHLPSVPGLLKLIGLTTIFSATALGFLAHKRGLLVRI
measurement-notes: Ratio of turnover number(TN)and Km for MAO B
stated-conditions: cattle
property-name: Ratio
// print number alone

Guide cases for Ratio, answers given:
- structure-smiles-string: "CN1CC=C(CCc2cccs2)CC1"
  target-under-test: "Amine oxidase [flavin-containing] B (Bos taurus)"
  property-name: "Ratio"
  numeric-readout: 1059
- structure-smiles-string: "CN1CC=C(Cc2ccccc2)CC1"
  target-under-test: "Amine oxidase [flavin-containing] B (Bos taurus)"
  property-name: "Ratio"
  numeric-readout: 1250
- structure-smiles-string: "CN1CC=C(c2cccc3ccccc23)CC1"
  target-under-test: "Amine oxidase [flavin-containing] B (Bos taurus)"
  property-name: "Ratio"
  numeric-readout: 500
- structure-smiles-string: "CN1CC=C(Cc2cccc3ccccc23)CC1"
  target-under-test: "Amine oxidase [flavin-containing] B (Bos taurus)"
  property-name: "Ratio"
  numeric-readout: 105
- structure-smiles-string: "CN1CC=C(Cc2ccc3ccccc3c2)CC1"
  target-under-test: "Amine oxidase [flavin-containing] B (Bos taurus)"
  property-name: "Ratio"
  numeric-readout: 326

Input: // query Ratio value for entry CN1CC=C(Cc2ccsc2)CC1
Output: 785

Input: # input compound: CN1CC=C(CCc2ccc3ccccc3c2)CC1 ; wanted: its Ratio
Output: 76

Input: For CN1CC=C(c2ccccc2)CC1 , what is its reported Ratio?
Output: 523

Input: Entry CN1CC=C(CCc2ccsc2)CC1 has what Ratio?
Output: 890

Input: Data request, read-out Ratio, for CN1CC=C(Cc2cccs2)CC1
Output: 3270
